Source listed as PubChem BioAssay AID2060502.

# Tested on: 885724-159-R-J1-PDC complex spheroid viability
# Assay info: Anticancer human tumor 885724-159-R-J1-PDC patient-derived pancreatic adenocarcinoma cell line growth inhibition [GQUAD]
# Measurement parameters: curve of first compound; second compound 3.16 µM
pIC50: −log10 of the molar value.
Value kind: pIC50

1) CCc1c2c(nc3ccc(O)cc13)-c1cc3c(c(=O)n1C2)COC(=O)[C@]3(O)CC + Cc1[nH]c2ccc(F)cc2c1-c1nc2c3cccnc3c3ncccc3c2[nH]1 : > 9.00

Request: Value lookup for pIC50; key = COc1ncnc(C2CC2)c1-c1ncc2cnn(Cc3ccc(-c4nc(C(F)(F)F)cn4C(C)C)cc3)c2n1 + Cc1cnc(CNC(=O)c2c(=O)c3ccc(N4CCCN(C)CC4)nc3n3c2sc2ccccc23)cn1
Result: < 5.00

Request: Value lookup for pIC50; key = Cc1cccc(N(C)C(=O)C2C(O)CCN2c2nc(C)cc(C(F)(F)F)c2C#N)c1 (centres undefined) + CN(C)c1ccc(Nc2c3ccc(NC(=O)CCN4CCCC4)cc3nc3cc(NC(=O)CCN4CCCC4)ccc23)cc1
Result: < 5.00

Request: Value lookup for pIC50; key = CC[C@@]1(O)C(=O)OCc2c1cc1n(c2=O)Cc2cc3c(CN(C)C)c(O)ccc3nc2-1 + Cc1[nH]c2ccc(F)cc2c1-c1nc2c3cccnc3c3ncccc3c2[nH]1
Result: > 9.00

###

# Test system: 885724-159-R-J1-PDC complex spheroid viability
# Assay info: Anticancer human tumor 885724-159-R-J1-PDC cell line growth inhibition [GQUAD];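 note: spheroids exposed to agents for seven days before readout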;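 for viability, T/C: percent of vehicle control viability where 100% = DMSO wells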
# Measurement parameters: second compound 0.1 µM; first compound 3.16 µM; stronger effect = lower value
Value kind: viability, T/C (%)
Report the figure in % without appending any unit label.

Sample answers from the record:
1. CC1COCCN1c1cc(C2(S(C)(=N)=O)CC2)nc(-c2ccnc3[nH]ccc23)n1 (centres undefined) + CN(C)c1ccc(Nc2c3ccc(NC(=O)CCN4CCCC4)cc3nc3cc(NC(=O)CCN4CCCC4)ccc23)cc1 : 79.3
2. Cc1cccc(N(C)C(=O)C2C(O)CCN2c2nc(C)cc(C(F)(F)F)c2C#N)c1 (centres undefined) + Cc1[nH]c2ccc(F)cc2c1-c1nc2c3cccnc3c3ncccc3c2[nH]1 : 81.8
3. COc1cc(C2c3cc4c(cc3C(OC3OC5COC(C)OC5C(O)C3O)C3COC(=O)C23)OCO4)cc(OC)c1O (centres undefined) + Cc1[nH]c2ccc(F)cc2c1-c1nc2c3cccnc3c3ncccc3c2[nH]1 : 80.2

Request: Entry Nc1ccn(C2OC(CO)C(O)C2(F)F)c(=O)n1 (centres undefined) + Cc1cnc(CNC(=O)c2c(=O)c3ccc(N4CCCN(C)CC4)nc3n3c2sc2ccccc23)cn1 , system 885724-159-R-J1-PDC complex spheroid viability: what viability, T/C was measured?
Result: 81.5

###

# Test system: 885724-159-R-J1-PDC complex spheroid viability
# Assay info: Anticancer human tumor 885724-159-R-J1-PDC cell line growth inhibition [GQUAD];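 note: spheroids exposed to agents for seven days before readout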
# Measurement parameters: curve of first compound; second compound 1 µM
Value kind: IC50

Sample answers from the record:
1. Nc1ccn(C2OC(CO)C(O)C2(F)F)c(=O)n1 (stereo unspecified) + Cc1cnc(CNC(=O)c2c(=O)c3ccc(N4CCCN(C)CC4)nc3n3c2sc2ccccc23)cn1 : > 10 µM
2. Cc1cccc(N(C)C(=O)C2C(O)CCN2c2nc(C)cc(C(F)(F)F)c2C#N)c1 (stereo unspecified) + Cc1[nH]c2ccc(F)cc2c1-c1nc2c3cccnc3c3ncccc3c2[nH]1 : > 10 µM
3. Nc1ccn(C2OC(CO)C(O)C2(F)F)c(=O)n1 (stereo unspecified) + Cc1[nH]c2ccc(F)cc2c1-c1nc2c3cccnc3c3ncccc3c2[nH]1 : > 10 µM
4. Cn1ncnc1[C@H]1c2n[nH]c(=O)c3cc(F)cc(c23)N[C@@H]1c1ccc(F)cc1 + Cc1[nH]c2ccc(F)cc2c1-c1nc2c3cccnc3c3ncccc3c2[nH]1 : > 0.316 µM
5. O=c1[nH]cc(F)c(=O)[nH]1 + Cc1[nH]c2ccc(F)cc2c1-c1nc2c3cccnc3c3ncccc3c2[nH]1 : > 10 µM

Now take the following compound into account.
Request: Value lookup for IC50; key = COc1ncnc(C2CC2)c1-c1ncc2cnn(Cc3ccc(-c4nc(C(F)(F)F)cn4C(C)C)cc3)c2n1 + Cc1cnc(CNC(=O)c2c(=O)c3ccc(N4CCCN(C)CC4)nc3n3c2sc2ccccc23)cn1
Result: > 10 µM
